Data provenance is the supplement of paper PMC9694430.

# System: LOC_OS03G50810-cb003
# measurementNotes: thermal shift delta Tm vs DMSO control; higher = stronger stabilization (binding);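 note: purified Escherichia coli-expressed rice kinase domain construct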
# testContext: 12.5 µM; protein concentration 2 µM
readout: thermal shift delta Tm
Show the value, then the unit it is measured in.

Below, 8 compounds whose answers are already recorded.
>  <compound>
Cc1nc(N)sc1-c1ccnc(Nc2ccc(N3CCOCC3)cc2)n1

>  <thermal shift delta Tm>
2.84 °C

$$$$
>  <compound>
C[C@@H]1COCCN1c1cc(C2([S@](C)(=N)=O)CC2)nc(-c2cc[nH]c3nccc2-3)n1

>  <thermal shift delta Tm>
0.2 °C

$$$$
>  <compound>
O=c1cc(-c2cccc3c2Sc2ccccc2S3)oc(N2CCOCC2)c1

>  <thermal shift delta Tm>
0.13 °C

$$$$
>  <compound>
CN1CC[C@H](c2c(O)cc(O)c3c(=O)cc(-c4ccccc4Cl)oc23)[C@H](O)C1 [Flavopiridol (Alvocidib)]

>  <thermal shift delta Tm>
0.4 °C

$$$$
>  <compound>
CC1=C(C(=O)Nc2ccc3[nH]ncc3c2)C(c2ccc(F)cc2)NC(=O)N1 (centres undefined)

>  <thermal shift delta Tm>
0.64 °C

$$$$
>  <compound>
O=C(NCc1ccccc1)c1csc(Nc2ccncn2)n1 [Thiazovivin]

>  <thermal shift delta Tm>
0.53 °C

$$$$
>  <compound>
O=C(Nc1cc(C(F)(F)F)cc(C(F)(F)F)c1)c1cc(Cl)ccc1O

>  <thermal shift delta Tm>
0.7 °C

$$$$
>  <compound>
CNCc1ccc(-c2cc(-c3nc(-c4ccc(S(=O)(=O)C(C)C)cc4)cnc3N)on2)cc1

>  <thermal shift delta Tm>
0.97 °C

$$$$

Please turn your attention to the following entry.
Field: thermal shift delta Tm (LOC_OS03G50810-cb003). Entry: COc1ccc(S(=O)(=O)N(CCO)c2ccccc2CN(C)C/C=C/c2ccc(Cl)cc2)cc1 [KN-93 Phosphate]
0.29 °C

====

# System: LOC_OS02G45750-cb003
# measurementNotes: thermal shift delta Tm vs DMSO control; higher = stronger stabilization (binding)
# testContext: 12.5 µM; protein concentration 2 µM
Classify as follows. Reported thermal shift delta Tm greater than or equal to 0.8 °C: Y. Reported thermal shift delta Tm below: N.

>  <compound>
CCc1cnn2c(NCc3ccc[n+]([O-])c3)cc(N3CCCC[C@H]3CCO)nc12

>  <qualitativeLabel>
N

$$$$
>  <compound>
Cc1cc(Nc2nc(N[C@@H](C)c3ncc(F)cn3)ncc2Cl)[nH]n1

>  <qualitativeLabel>
Y

$$$$
>  <compound>
CNc1nc(Nc2cnn([C@H]3CCN(C4COC4)C[C@@H]3F)c2Cl)ncc1C(F)(F)F

>  <qualitativeLabel>
Y

$$$$
>  <compound>
Cn1cc(-c2ccc3nnc(C(F)(F)c4ccc5ncccc5c4)n3n2)cn1

>  <qualitativeLabel>
N

$$$$
>  <compound>
C=CC(=O)N[C@H]1CCOC[C@H]1Nc1ncc2cc(-c3c(Cl)c(OC)cc(OC)c3Cl)ccc2n1

>  <qualitativeLabel>
Y

$$$$

Does thermal shift delta Tm meet or surpass 0.8 °C for CN1CCN(c2nc(C3=C(c4c[nH]c5ccccc45)C(=O)NC3=O)c3ccccc3n2)CC1 [Sotrastaurin] ?
Y

Now give it for O=C(Nc1cc(C(F)(F)F)cc(C(F)(F)F)c1)c1cc(Cl)ccc1O too.
N

// same read-out, input: CNC(=O)c1cc(COc2nnc(Nc3ccc(Cl)cc3)c3ccoc23)ccn1 [Telatinib]
N

====

# System: LOC_OS06G16330-cb003
# Sequence (as listed by the source): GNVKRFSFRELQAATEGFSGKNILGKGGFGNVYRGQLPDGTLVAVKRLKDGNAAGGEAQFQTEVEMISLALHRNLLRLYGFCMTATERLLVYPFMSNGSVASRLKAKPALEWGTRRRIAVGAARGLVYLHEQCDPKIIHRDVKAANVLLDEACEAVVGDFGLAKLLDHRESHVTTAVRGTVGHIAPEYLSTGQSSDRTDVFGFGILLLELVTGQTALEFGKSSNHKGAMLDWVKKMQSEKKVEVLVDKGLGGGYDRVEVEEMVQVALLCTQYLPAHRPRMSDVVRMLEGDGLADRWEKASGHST
# measurementNotes: thermal shift delta Tm vs DMSO control; higher = stronger stabilization (binding)
# testContext: 12.5 µM; protein concentration 2 µM
Would you mind classing the entries by thermal shift delta Tm? Ranges: c1 (below -0.2 °C), c2 (-0.2 °C to below 0.9 °C), c3 (0.9 °C or more)

Kindly state the category for this compound: CCc1ccc(/C=C2/SC(=S)NC2=O)cc1
c2

====

# Tested on: LOC_OS07G07230-cb001
# measurementNotes: thermal shift delta Tm vs DMSO control; higher = stronger stabilization (binding)
# testContext: 12.5 µM; protein concentration 2 µM
readout: thermal shift delta Tm (°C)
Numbers only, in °C.

Solved cases (5 shown):
>  <molecule>
C=CC(=O)Nc1ccc2ncnc(Nc3ccc(OCc4cccc(F)c4)c(Cl)c3)c2c1

>  <measuredOn>
LOC_OS07G07230-cb001

>  <unitSpec>
°C

>  <thermal shift delta Tm>
-0.18

$$$$
>  <molecule>
O=C(/C=C/c1ccc(O)c(O)c1)c1ccc(O)cc1O [Butein]

>  <measuredOn>
LOC_OS07G07230-cb001

>  <unitSpec>
°C

>  <thermal shift delta Tm>
0.82

$$$$
>  <molecule>
CC(=O)O/N=C1/C(c2c(O)[nH]c3cc(Br)ccc23)=Nc2ccccc21 [BIO-acetoxime]

>  <measuredOn>
LOC_OS07G07230-cb001

>  <unitSpec>
°C

>  <thermal shift delta Tm>
0.92

$$$$
>  <molecule>
O=C(NCCCNc1nc(Nc2cccc(NC(=O)N3CCCC3)c2)ncc1I)c1cccs1

>  <measuredOn>
LOC_OS07G07230-cb001

>  <unitSpec>
°C

>  <thermal shift delta Tm>
0.21

$$$$
>  <molecule>
O=S(=O)(c1cccc2c(I)cccc12)N1CCCNCC1

>  <measuredOn>
LOC_OS07G07230-cb001

>  <unitSpec>
°C

>  <thermal shift delta Tm>
0.16

$$$$

// input: 5 molecules below; output: thermal shift delta Tm for each
1. CC(C)(C)c1cc(NC(=O)Nc2ccc(-c3cn4c(n3)sc3cc(OCCN5CCOCC5)ccc34)cc2)no1 [Quizartinib (AC220)]
2. COc1cc(N2CCC(N(C)C)CC2)ccc1Nc1ncc(Cl)c(Nc2ccccc2P(C)(C)=O)n1
3. COc1ccc(-c2cc3nccn3c(Nc3ncccc3C(N)=O)n2)cc1OC
4. O=C1NC(=O)C(c2cnc3ccccn23)=C1c1cn2c3c(cc(F)cc13)CN(C(=O)N1CCCCC1)CC2
5. CC1(C)OC(=O)C=C[C@]2(C)[C@H]3CC[C@@]4(C)[C@H](c5ccoc5)OC(=O)[C@H]5O[C@]54[C@]3(C)C(=O)C[C@@H]12 [Obacunone]

[0.45, 0.35, 0.38, 0.29, 0.44]

Each of the following entries comes with a recorded value; kindly state thermal shift delta Tm for each.
1. Cn1cc(-c2ccc(F)c(C(F)(F)F)c2)nc1C1CCN(c2ncnc3[nH]ncc23)CC1
2. CCCCCCCCCCCCCCCCn1cc[n+](Cc2ccccc2)c1C
3. COc1cc2c(N3CCN(C(=O)Nc4ccc(OC(C)C)cc4)CC3)ncnc2cc1OCCCN1CCCCC1 [Tandutinib (MLN518)]
4. C=CC(=O)Nc1cc(Nc2nccc(-c3cn(C)c4ccccc34)n2)c(OC)cc1N(C)CCN(C)C [Osimertinib (AZD9291)]
5. Cc1ccc(Nc2nccc(N(C)c3ccc4c(C)n(C)nc4c3)n2)cc1S(N)(=O)=O [Pazopanib]
6. Cc1nc2ccc(-n3ncc(C(=O)c4cc5ccccc5[nH]4)c3N)cc2[nH]1
7. O=C(c1ccc(/C=C/c2n[nH]c3ccccc23)cc1)N1CCNCC1

[0.63, -0.82, 0.38, 0.47, 0.5, 0.11, 0.03]

Here are 8 molecules. What values of thermal shift delta Tm were reported for them?
1. COc1ccc(F)c(F)c1C(=O)c1cnc(NC2CCN(S(C)(=O)=O)CC2)nc1N
2. O=C1NC(=O)/C(=C/c2ccc3nccc(-c4ccncc4)c3c2)S1
3. CN(C)Cc1cccc(N=C(c2ccccc2)c2c(O)[nH]c3cc(C(=O)N(C)C)ccc23)c1
4. CC(C)(C)c1cnc(CSc2cnc(NC(=O)C3CCNCC3)s2)o1
5. Cc1ccc(S(=O)(=O)/C=C/C#N)cc1
6. COc1cc(Nc2ncc(F)c(Nc3ccc4c(n3)N(COP(=O)(O)O)C(=O)C(C)(C)O4)n2)cc(OC)c1OC [R788 (Fostamatinib) Disodium]
7. CCNC(=O)Nc1ccc(-c2nc(N3CCOC[C@@H]3C)c3c(n2)C(C)(C)S(=O)(=O)C3)cc1
8. Nc1nccc(Oc2ccc(NC(=O)c3c[nH]cc(-c4ccc(F)cc4)c3=O)cc2F)c1Cl

0.3
0.79
-0.37
-0.01
-0.21
0.59
0.66
0.36

Hey, can you go through the list below and give me thermal shift delta Tm for every item?
1. COC(=O)N[C@@H](C)CNc1nccc(-c2cn(C(C)C)nc2-c2cc(Cl)cc(NS(C)(=O)=O)c2F)n1 [Encorafenib (LGX818)]
2. C=CC(=O)Nc1cccc(Oc2nc(Nc3ccc(N4CCN(C)CC4)cc3)ncc2Cl)c1
3. C[C@H](CN(C)C)Oc1nc(Nc2cc3cccc(Cl)c3cn2)cnc1C#N
4. O=C(O)[C@]1(Cc2cccc(Nc3nccs3)n2)CC[C@@H](Oc2cccc(Cl)c2F)CC1
5. Cc1cc(Nc2cc(N)ncn2)c(=O)n2c1C(=O)NC21CCCCC1
6. O=c1cc(N2CCOCC2)oc2c1ccc1ccccc12

[0.67, 1.03, 0.34, -1.36, 0.71, 0.36]
